# method: Plasma stability, human plasma
# assay-context: human plasma, 37° C., timepoint 0 h; calibration range 0.1 to 10 μM
Bridge positions count the residues as written; N and C are the ends. Peptide text beside a SMILES is read from it.
result-type: Tube 1 (compound concentration)
Hey, just send me the number, nothing else.

May I ask what Tube 1 (compound concentration) has been recorded for CC(=O)N[C@@H](CO)C(=O)N[C@@H](CCCNC(=N)N)C(=O)N[C@@H](CC(C)C)C(=O)N[C@@H](CCC(=O)O)C(=O)N[C@H]1CCC(=O)NCCCC[C@@H](C(=O)N[C@@H](CCCNC(=N)N)C(=O)N[C@@H](CCCNC(=N)N)C(=O)N[C@@H](CC(C)C)C(=O)N[C@H](C(=O)N[C@@H](CCC(=O)O)C(N)=O)[C@@H](C)O)NC(=O)[C@H](CC(C)C)NC(=O)[C@H](CCC(=O)O)NC1=O [SD15192] (Ac-SRLEEELKRRLTE-NH2; lactam 5-8) ?
2.667

How about CC(=O)N[C@@H](CO)C(=O)N[C@@H](CCCNC(=N)N)C(=O)N[C@@H](CC(C)C)C(=O)N[C@@H](CCC(=O)O)C(=O)N[C@H]1CC(=O)NCCCC[C@@H](C(=O)N[C@@H](CCCNC(=N)N)C(=O)N[C@@H](CC(C)C)C(=O)N[C@H](C(=O)N[C@@H](CCC(=O)O)C(N)=O)[C@@H](C)O)NC(=O)[C@H](CCCNC(=N)N)NC(=O)[C@H](CC(C)C)NC(=O)[C@H](CCC(=O)O)NC1=O [SD15196] (Ac-SRLEDELRKRLTE-NH2; lactam 5-9) ?
2.314

How about CC(=O)N[C@@H](CO)C(=O)N[C@@H](CCCNC(=N)N)C(=O)N[C@@H](CC(C)C)C(=O)N[C@@H](CCC(=O)O)C(=O)N[C@@H](CCC(=O)O)C(=O)N[C@@H](CCC(=O)O)C(=O)N[C@@H](CC(C)C)C(=O)N[C@@H](CCCNC(=N)N)C(=O)N[C@H]1CCCCNC(=O)CC[C@@H](C(N)=O)NC(=O)[C@H]([C@@H](C)O)NC(=O)[C@H](CC(C)C)NC(=O)[C@H](CCCNC(=N)N)NC1=O [SD15193] (Ac-SRLEEELRKRLTE-NH2; lactam 9-13) ?
2.799

====

# method: Plasma stability, mouse plasma
# assay-context: mouse plasma, 37° C., timepoint 2 h
Bridge positions count the residues as written; N and C are the ends. Peptide text beside a SMILES is read from it.
result-type: Tube 1 (compound concentration)
Hey, just send me the number, nothing else.

May I ask what Tube 1 (compound concentration) has been recorded for CC(=O)N[C@@H](CO)C(=O)N[C@@H](CCCNC(=N)N)C(=O)N[C@@H](CC(C)C)C(=O)N[C@@H](CCC(=O)O)C(=O)N[C@H]1CCC(=O)NCCCC[C@@H](C(=O)N[C@@H](CCCNC(=N)N)C(=O)N[C@@H](CC(C)C)C(=O)N[C@H](C(=O)N[C@@H](CCC(=O)O)C(N)=O)[C@@H](C)O)NC(=O)[C@H](CCCNC(=N)N)NC(=O)[C@H](CC(C)C)NC(=O)[C@H](CCC(=O)O)NC1=O [SD15194] (Ac-SRLEEELRKRLTE-NH2; lactam 5-9) ?
2.526

How about CC(=O)N[C@@H](CO)C(=O)N[C@@H](CCCNC(=N)N)C(=O)N[C@@H](CC(C)C)C(=O)N[C@@H](CCC(=O)O)C(=O)N[C@H]1CC(=O)NCCCC[C@@H](C(=O)N[C@@H](CCCNC(=N)N)C(=O)N[C@@H](CC(C)C)C(=O)N[C@H](C(=O)N[C@@H](CCC(=O)O)C(N)=O)[C@@H](C)O)NC(=O)[C@H](CCCNC(=N)N)NC(=O)[C@H](CC(C)C)NC(=O)[C@H](CCC(=O)O)NC1=O [SD15196] (Ac-SRLEDELRKRLTE-NH2; lactam 5-9) ?
2.277

How about CC(=O)N[C@@H](CO)C(=O)N[C@@H](CCCNC(=N)N)C(=O)N[C@@H](CC(C)C)C(=O)N[C@@H](CCC(=O)O)C(=O)N[C@@H](CCC(=O)O)C(=O)N[C@@H](CCC(=O)O)C(=O)N[C@@H](CC(C)C)C(=O)N[C@@H](CCCNC(=N)N)C(=O)N[C@H]1CCCCNC(=O)CC[C@@H](C(N)=O)NC(=O)[C@H]([C@@H](C)O)NC(=O)[C@H](CC(C)C)NC(=O)[C@H](CCCNC(=N)N)NC1=O [SD15193] (Ac-SRLEEELRKRLTE-NH2; lactam 9-13) ?
2.864

How about CC(=O)N[C@@H](CO)C(=O)N[C@@H](CCCNC(=N)N)C(=O)N[C@@H](CC(C)C)C(=O)N[C@@H](CCC(=O)O)C(=O)N[C@H]1CCC(=O)NCCCC[C@@H](C(=O)N[C@@H](CCCNC(=N)N)C(=O)N[C@@H](CCCNC(=N)N)C(=O)N[C@@H](CC(C)C)C(=O)N[C@H](C(=O)N[C@@H](CCC(=O)O)C(N)=O)[C@@H](C)O)NC(=O)[C@H](CC(C)C)NC(=O)[C@H](CCC(=O)O)NC1=O [SD15192] (Ac-SRLEEELKRRLTE-NH2; lactam 5-8) ?
2.366
